# TARGET UNDER TEST: SARS-CoV-2 Omicron BA.3 RBD (SARS-CoV-2 Omicron BA.3, strain)
# METHOD: BLI
pKd: −log10 of the molar value.
QUANTITY KIND: pKd

Example entries and their recorded answers appear below.
BINDER | pKd
C092 (antibody, V domains shown) VH: QVQLVQSGAEVKKPGSSVKVSCKASGGSFTNHFISWVRQAPGQGLEWMGRIIPILGTANYAQNFQGRVMMTADKSTSTAYMELSSLRSEDTAVYYCARDSGYSGYGSTYYMDVWGKGTTVTVSS VL: QSVLTQPPSVSGAPGQRVTISCTGSNSNIGAGYDVHWYQQLPGAAPKLLIYGNNNRPSGVPDRFSGSKSDTSASLAITGLQVEDEADYYCQSYDSSLSDSVFGSGTKVTVL | > 9.52
BD56-104 (antibody, V domains shown) VH: QVQLVQSGAEVKTPGSSVKVSCKASGGTFGSHSITWVRQAPGQGLEWMGRVIPILGIPDFAESFQGRVAITADRSTSTAHMELSRLRSEDTAVYYCARDVGYSGSGSSNYFDSWGQGTLVTVSS VL: QSVLTQPPSVSGAPGQRVTISCTGSNSNIGAGYDVHWYRQLPGTAPKLLIYVNNNRPSGVPDRFSGSRSGASASLAITGLQAEDEAEYYCQSYDSSLSGSIFGGGTKLTVL | > 9.52
C807 (antibody, V domains shown) VH: QVQLVQSGAEAKKPGSSVKVSCKASGGTFKSYIINWVRQAPGQGLEWMGEIIPIFGTANYAQKFQGRVTSTADESTSTAYMELSSLKSEDTAVYYCARGRGYSGYGASYYFDYWGQGTLVTVSS VL: QSVLTQPPSVSGAPGQRVTISCTGSNSNIGAGYDVHWYQQLPGTAPKLLIYANSNRPSGVPDRFSGSKSGTSASLAITGLQAEDEADYYCQSYDSGLSGSVFGGGTKLTVL | > 9.52

Shifting focus to the binder that follows.
Report measured pKd; entry is BD56-597 (antibody, V domains shown) VH: QVQLVQSGAEVKKPGSSVKVSCKASGGTFSTYPISWVRQAPGQGVEWMGAIIPILGTTDYAQIFQGRVTITADKSTSTAYMELSSLRPEDTAVYYCARERGYSGYGAAYYFDSWGQGTLVTVSS VL: QSVLTQPPSVSGAPGQRVTISCTGSDSNIGAGYDVHWYQQLPGTAPKLLIYVNINRPSGVPDRFSGSKSATSASLAITGLQAEDEADYYCQSYDSSLSGVVFGGGTKLTVL
> 9.52
